# System: Mus musculus
# assayRemarks: Peripheral plasma levels in mice after oral administration of 50 mg/kg dose for 0.5 hr
# Assay type: functional, organism-based
# Set-up: dose 50 mg/kg
measure: Concentration
Please answer using the number first and the unit second.

Documented Concentration of "CC[C@H]1OC(=O)C[C@@H](O)[C@H](C)[C@@H](O[C@@H]2O[C@H](C)[C@@H](O[C@H]3C[C@@](C)(O)[C@@H](O)[C@H](C)O3)[C@H](N(C)C)[C@H]2O)[C@@H](CCOc2ccccc2)C[C@@H](C)C(=O)/C=C/C(C)=C/[C@@H]1CO[C@@H]1O[C@H](C)[C@@H](O)[C@@H](OC)[C@H]1OC" : 2 µg/mL

Next, consider the following compound.
Sample "CC[C@H]1OC(=O)C[C@@H](O)[C@H](C)[C@@H](O[C@@H]2O[C@H](C)[C@@H](O[C@H]3C[C@@](C)(O)[C@@H](O)[C@H](C)O3)[C@H](N(C)C)[C@H]2O)[C@@H](CCN2C(=O)c3ccccc3C2=O)C[C@@H](C)C(=O)/C=C/C(C)=C/[C@@H]1CO[C@@H]1O[C@H](C)[C@@H](O)[C@@H](OC)[C@H]1OC" ; Concentration observed: 2.2 µg/mL

====

Form field: MIC (one value per entry).
# System: Staphylococcus epidermidis
# assayRemarks: In vitro antimicrobial activity against Staphylococcus epidermidis EPI1
# Assay type: functional
Expressed in µg/mL, but write only the number.

The examples below pair each entry with its known result.
Form field MIC for item "CC[C@H]1OC(=O)C[C@@H](O)[C@H](C)[C@@H](O[C@@H]2O[C@H](C)[C@@H](O)[C@H](N(C)C)[C@H]2O)[C@@H](CCOc2ccc(Oc3ccccc3)cc2)C[C@@H](C)C(=O)/C=C/C(C)=C/[C@@H]1CO[C@@H]1O[C@H](C)[C@@H](O)[C@@H](OC)[C@H]1OC" on Staphylococcus epidermidis: 0.5

Bench note, Staphylococcus epidermidis: "CC[C@H]1OC(=O)C[C@@H](O)[C@H](C)[C@@H](O[C@@H]2O[C@H](C)[C@@H](O[C@H]3C[C@@](C)(O)[C@@H](O)[C@H](C)O3)[C@H](N(C)C)[C@H]2O)[C@@H](CC=O)C[C@@H](C)C(=O)/C=C/C(C)=C/[C@@H]1C" , MIC reads 0.5

The recorded MIC with Staphylococcus epidermidis for "CC[C@H]1OC(=O)C[C@@H](O)[C@H](C)[C@@H](O[C@@H]2O[C@H](C)[C@@H](O)[C@H](N(C)C)[C@H]2O)[C@@H](CCOc2ccc(CO)cc2)C[C@@H](C)C(=O)/C=C/C(C)=C/[C@@H]1CO[C@@H]1O[C@H](C)[C@@H](O)[C@@H](OC)[C@H]1OC" was 0.5

Reported MIC (Staphylococcus epidermidis) for entry "CC[C@H]1OC(=O)C[C@@H](O)[C@H](C)[C@@H](O[C@@H]2O[C@H](C)[C@@H](O)[C@H](N(C)C)[C@H]2O)[C@@H](CCOc2ccc(C(=O)c3ccccc3)cc2)C[C@@H](C)C(=O)/C=C/C(C)=C/[C@@H]1CO[C@@H]1O[C@H](C)[C@@H](O)[C@@H](OC)[C@H]1OC" is 0.25

"CC[C@H]1OC(=O)C[C@@H](O)[C@H](C)[C@@H](O[C@@H]2O[C@H](C)[C@@H](O[C@H]3C[C@@](C)(O)[C@@H](O)[C@H](C)O3)[C@H](N(C)C)[C@H]2O)[C@@H](CCN2C(=O)c3ccccc3C2=O)C[C@@H](C)C(=O)/C=C/C(C)=C/[C@@H]1CO[C@@H]1O[C@H](C)[C@@H](O)[C@@H](OC)[C@H]1OC" tested on Staphylococcus epidermidis gave MIC: 1

Item "CC[C@H]1OC(=O)C[C@@H](O)[C@H](C)[C@@H](O[C@@H]2O[C@H](C)[C@@H](O)[C@H](N(C)C)[C@H]2O)[C@@H](CC=O)C[C@@H](C)C(=O)/C=C/C(C)=C/[C@@H]1CO" was tested on Staphylococcus epidermidis; the reported MIC is 1

Next:
Tested on Staphylococcus epidermidis: "CC[C@H]1OC(=O)C[C@@H](O)[C@H](C)[C@@H](O[C@@H]2O[C@H](C)[C@@H](O)[C@H](N(C)C)[C@H]2O)[C@@H](CCOc2ccc(OC)cc2)C[C@@H](C)C(=O)/C=C/C(C)=C/[C@@H]1CO[C@@H]1O[C@H](C)[C@@H](O)[C@@H](OC)[C@H]1OC" . Observed MIC: 0.25

For "CC[C@H]1OC(=O)C[C@@H](O)[C@H](C)[C@@H](O[C@@H]2O[C@H](C)[C@@H](O)[C@H](N(C)C)[C@H]2O)[C@@H](CCOc2ccc(CN3CCCCCC3)cc2)C[C@@H](C)C(=O)/C=C/C(C)=C/[C@@H]1CO[C@@H]1O[C@H](C)[C@@H](O)[C@@H](OC)[C@H]1OC" on Staphylococcus epidermidis, measured MIC was 0.5

These measurements were taken from ChEMBL document CHEMBL1124186.
